Origin of the recorded values: ChEMBL document CHEMBL1201862

- Tested on: TK-10
- assay text: NCI tumour cell line growth inhibition, 48 h
Activity calls are given as the source filed them. No stated cut-off is given here; in the data, active = GI50 up to about 1.1 µM and inactive = higher.
measured quantity: GI50

Guide cases for GI50, answers given:
I would be grateful if you could share the reported GI50 for Cc1ccc(S(=O)(=O)N2CCC(C(=O)O)(c3ccccc3)CC2)cc1 .
> 100 µM (inactive)

I would be grateful if you could share the reported GI50 for Oc1ccc(SCc2cc(O)c(O)c(O)c2)cc1 .
> 100 µM (inactive)

For every record below, what is its GI50?
1. CN(C)CCCN=C(N)N
2. CCc1c(CNC2=NCCN2)c(CC)c(CNC2=NCCN2)c(CC)c1CNC1=NCCN1

["> 100 µM (inactive)", "> 100 µM (inactive)"]

For every record below, what is its GI50?
1. Cc1cc(Cc2cc(C)cc(C(C)(C)C)c2O)c(O)c(Cc2cc(C)cc(C(C)(C)C)c2O)c1
2. CN1CCN2c3ccccc3CC(C#N)(C#N)C2C1 (stereo unspecified)

["3.03 µM (inactive)", "> 100 µM (inactive)"]

For every record below, what is its GI50?
1. CC1=C(C(=O)Nc2ccccc2C)C(/C=C/c2ccccc2)C(C(=O)Nc2ccccc2C)=C(C)N1
2. CC(C)(C)C(=O)CC(=O)C(F)(F)C(F)(F)C(F)(F)F
3. CN(C)c1ccc(-c2nc(N)nc3c2CCCC3)cc1
4. O=C(Nc1ccccc1F)c1c(O)nc2sccn2c1=O
5. O=c1c2cc(S(=O)(=O)O)ccc2nc(COc2ccc(Oc3ccc(Cl)cc3Cl)cc2)n1-c1ccc(Oc2ccc(Cl)cc2)cc1Cl

["> 100 µM (inactive)", "18.2 µM (inactive)", "49.1 µM (inactive)", "> 10 µM (inactive)", "22 µM (inactive)"]
